# experimental_system: human MOR (Homo sapiens, UniProt P35372)
# Construct: expressed in transfected cells; host or cells: CHO cells
# Sequence (P35372 whole entry): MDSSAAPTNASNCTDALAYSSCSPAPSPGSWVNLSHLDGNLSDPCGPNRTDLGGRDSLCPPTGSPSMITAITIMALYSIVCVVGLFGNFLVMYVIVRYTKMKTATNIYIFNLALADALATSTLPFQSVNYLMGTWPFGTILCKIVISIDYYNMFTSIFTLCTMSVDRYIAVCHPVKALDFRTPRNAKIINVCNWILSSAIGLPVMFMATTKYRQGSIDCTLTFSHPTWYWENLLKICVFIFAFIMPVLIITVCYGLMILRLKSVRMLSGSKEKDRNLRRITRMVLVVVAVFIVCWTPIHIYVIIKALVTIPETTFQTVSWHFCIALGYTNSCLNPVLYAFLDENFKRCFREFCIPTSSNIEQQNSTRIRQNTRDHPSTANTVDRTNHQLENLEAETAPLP
# assay_summary: biochemical
# Format: biochemical
Measured EC50 by item
attribute_measured: EC50 (nM)

{"compound_smiles": "CO[C@@]12CC[C@H](NCCCC(=O)O)[C@@H]3Oc4c(O)ccc5c4[C@@]31CCN(C)[C@@H]2C5", "experimental_system": "human MOR (Homo sapiens, UniProt P35372)", "attribute_measured": "EC50", "endpoint_unit": "nM", "observed_result": 1.9}
{"compound_smiles": "CCO.CO[C@@]12CC[C@@H](NCC(=O)O)[C@@H]3Oc4c(O)ccc5c4[C@@]31CCN(C)[C@@H]2C5.Cl.Cl.O", "experimental_system": "human MOR (Homo sapiens, UniProt P35372)", "attribute_measured": "EC50", "endpoint_unit": "nM", "observed_result": 3.88}
{"compound_smiles": "CO[C@@]12CC[C@H](N[C@@H](CO)C(=O)O)[C@@H]3Oc4c(O)ccc5c4[C@@]31CCN(C)[C@@H]2C5", "experimental_system": "human MOR (Homo sapiens, UniProt P35372)", "attribute_measured": "EC50", "endpoint_unit": "nM", "observed_result": 1.21}

---

Measured log10 of Ki by item
# experimental_system: KOR (Cavia porcellus, UniProt P41144)
# Construct: from tissue
# Sequence (P41144 whole entry): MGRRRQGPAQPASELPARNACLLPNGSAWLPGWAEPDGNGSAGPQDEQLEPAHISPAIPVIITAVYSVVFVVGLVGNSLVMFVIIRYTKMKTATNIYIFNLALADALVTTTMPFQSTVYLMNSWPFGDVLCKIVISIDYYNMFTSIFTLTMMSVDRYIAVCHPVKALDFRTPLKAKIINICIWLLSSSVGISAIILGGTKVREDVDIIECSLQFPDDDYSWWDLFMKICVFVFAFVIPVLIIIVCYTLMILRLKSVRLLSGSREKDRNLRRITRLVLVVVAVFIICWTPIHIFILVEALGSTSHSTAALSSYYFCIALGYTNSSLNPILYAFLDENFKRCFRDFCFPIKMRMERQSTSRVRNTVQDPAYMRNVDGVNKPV
# assay_summary: Opioid receptor binding, KOR, guinea pig brain membranes
# protocol_conditions: Binding Ki KOR, Table 1-4, guinea pig brain membranes
attribute_measured: log10 of Ki (log10 of the value in nM)

{"compound": "COC12CCC(NC(C)C(=O)O)C3Oc4c(O)ccc5c4C31CCN(C)C2C5 (single isomer, unassigned) [Compound 53]", "experimental_system": "KOR (Cavia porcellus, UniProt P41144)", "log10 of Ki": 1.85}
{"compound": "CO[C@@]12CC[C@@H](N[C@@H](CCC(N)=O)C(=O)O)[C@@H]3Oc4c(O)ccc5c4[C@@]31CCN(C)[C@@H]2C5 [Compound 18]", "experimental_system": "KOR (Cavia porcellus, UniProt P41144)", "log10 of Ki": 2.46}
{"compound": "CO[C@@]12CC[C@@H](N[C@@H](CCSC)C(=O)O)[C@@H]3Oc4c(O)ccc5c4[C@@]31CCN(C)[C@@H]2C5 [Compound 24]", "experimental_system": "KOR (Cavia porcellus, UniProt P41144)", "log10 of Ki": 2.67}
{"compound": "COC12CCC(NCCC(=O)O)C3Oc4c(O)ccc5c4C31CCN(C)C2C5 (single isomer, unassigned) [Compound 22]", "experimental_system": "KOR (Cavia porcellus, UniProt P41144)", "log10 of Ki": 1.85}
{"compound": "CO[C@@]12CC[C@H](N[C@@H](CCCCN)C(=O)O)[C@@H]3Oc4c(O)ccc5c4[C@@]31CCN(C)[C@@H]2C5 [Compound 38]", "experimental_system": "KOR (Cavia porcellus, UniProt P41144)", "log10 of Ki": 1.10}
{"compound": "COC12CCC(NC(C)C(=O)O)C3Oc4c(O)ccc5c4C31CCN(C)C2C5 (single isomer, unassigned) [Compound 2]", "experimental_system": "KOR (Cavia porcellus, UniProt P41144)", "log10 of Ki": 1.80}
